experiment: % transmission spectrum of 0.1% solution (breakthrough, steepness); assay type: physicochemical; details: distance in nm over which transmittance increases from 1 to 80%
PROPERTY_LABEL: Steepness (nm)

>>> df
                                   compound  result_number
0  CCCCC(CC)COC(=O)c1ccc2c(c1)CCN2/C=C(/C(=O)C(C)(C)C)c1ccc(C#N)cc1 (stereo not shown)             22

I = CN(C)C(=O)C(=O)/C(=C/N(c1ccccc1)c1ccccc1)c1ccccc1
II = Cc1cc(C)c(C(=O)/C(=C\N2CCc3cc(C(=O)OCCCOC(=O)c4ccc5c(c4)CCN5/C=C(/C(=O)c4c(C)cc(C)cc4C)c4ccccc4)ccc32)c2ccccc2)c(C)c1
III = CCN(/C=C(/C(=O)c1ccc(S(=O)(=O)N(C)C)cc1)c1ccccc1)c1ccccc1
Let's sort these by Steepness, smallest first. Go ahead? Sort and list the labels as requested.
II, I, III

====

test: UV absorbance spectrum in solution (λmax, λcrit, extinction coefficients); type: physicochemical; settings: critical wavelength
PROPERTY_LABEL: λcrit (nm)

In [3]: df
Out[3]:
                                item_smiles  result_number
0  COC(=O)c1ccc2c(c1)CCN2/C=C(/C(=O)C(=O)OC(C)(C)c1ccccc1)c1ccccc1            370
1  Cc1cccc2c1N(/C=C(\C(=O)C(F)(F)F)c1ccccc1)CC2            386
2  COC(=O)c1ccc2c(c1)CCN2/C=C(/C(=O)OC1(C)CCCCC1)c1ccccc1            370
3  O=C(/C(=C\N1CCc2cc(Br)ccc21)c1ccccc1)C(F)(F)F            390
4  Cc1cc(C)c(C(=O)/C(=C/N2CCc3ccccc32)c2ccccc2)c(C)c1            375
5  Cc1cc(C)c(C(=O)/C(=C/N(c2ccccc2)c2ccccc2)c2ccccc2)c(C)c1            369
6  CN(/C=C(\C(=O)C(F)(F)F)c1ccccc1)c1ccc([N+](=O)[O-])cc1            391
7       CCN(/C=C(/C(=O)c1ccccc1)c1ccccc1)CC            360

====

assay: Photostability protocol: thin film irradiated with xenon arc lamp; assay type: physicochemical; details: 1 hour xenon arc lamp, ratio of absorbance at λmax irradiated vs unirradiated, ^a = average of multiple measurements
PROPERTY_LABEL: Photostability (%)

P = O=C(C(=O)N1CCc2ccccc21)/C(=C/N1CCc2ccccc21)c1ccccc1 [Compound 277]
Q = CC1(C)CN(/C=C(/C(=O)c2ccccc2)c2ccccc2)c2ccccc21 [Compound 246]
Between these two entries, P and Q , state which has the higher Photostability. Please reply using the label of the selected record.
P

====

test: UV absorbance spectrum in solution (λmax, λcrit, extinction coefficients); type: physicochemical; conditions: mass extinction coefficient
PROPERTY_LABEL: E (1%, 1 cm)

Illustrative cases are given below, each with its answer.
>>> df
                                   molecule  property_label  result_number
0  CCN(CC)C(=O)C(=O)/C(=C/N1CCc2cc(C(=O)OC)ccc21)c1ccccc1    E (1%, 1 cm)           1260
1  O=C(/C(=C\N1CCc2cc([N+](=O)[O-])ccc21)c1ccccc1)C(F)(F)F    E (1%, 1 cm)           1390
2  CCOC(=O)C(=O)/C(=C\N(CC)c1ccccc1)c1ccccc1    E (1%, 1 cm)            728
3  CCCCC(CC)COC(=O)c1ccc2c(c1)CCN2C=C(C(=O)C(C)(C)C)c1ccccc1 (centres unmarked)    E (1%, 1 cm)           1189
4  CN(C)S(=O)(=O)c1ccc(C(=O)/C(=C/N2CCc3ccccc32)c2ccccc2)cc1    E (1%, 1 cm)            552

1 = CN(C)C(=O)C(=O)/C(=C\N1CCc2ccccc21)c1ccccc1
2 = CCN(/C=C(\C(=O)c1c(F)c(F)c(F)c(F)c1F)c1ccccc1)CC
Hi, I'm comparing two records. Which one has the lower E (1%, 1 cm), 1 or 2 ? Please reply using the label of the selected record.
2
